system: KRAS patient-derived spheroids with HUVEC/MSC, viability; experiment: Anticancer human tumor 941728-121-R-J1-PDC patient-derived lung adenocarcinoma cell line growth inhibition [KRAS2]; settings: second compound 3.16 µM; first compound 0.01 µM; active = viability on the fitted dose curve at most 10% of control; inactive = the rest
Possible outcomes: active, inactive

{"Compound": "CN(C)C/C=C/C(=O)Nc1cc2c(Nc3ccc(F)c(Cl)c3)ncnc2cc1O[C@H]1CCOC1 + CNCc1ccccc1-c1csc(C(C)Nc2nc(C)nc3cc(OC)c(OC)cc23)c1", "Assigned Label": "active"}
{"Compound": "Cn1ncnc1[C@H]1c2n[nH]c(=O)c3cc(F)cc(c23)N[C@@H]1c1ccc(F)cc1 + COc1cc2nc(C)nc(NC(C)c3cc(N)cc(C(F)(F)F)c3)c2cc1OC1CCOC1", "Assigned Label": "inactive"}
{"Compound": "CC(=O)OC12COC1CC(O)C1(C)C(=O)C(O)C3=C(C)C(OC(=O)C(O)C(NC(=O)OC(C)(C)C)c4ccccc4)CC(O)(C(OC(=O)c4ccccc4)C21)C3(C)C (stereo unspecified) + COc1cc2nc(C)nc(NC(C)c3cc(N)cc(C(F)(F)F)c3)c2cc1OC1CCOC1", "Assigned Label": "inactive"}
{"Compound": "CC(C)n1nc(-c2ccc3oc(N)nc3c2)c2c(N)ncnc21 + COc1cc2nc(C)nc(NC(C)c3cc(N)cc(C(F)(F)F)c3)c2cc1OC1CCOC1", "Assigned Label": "inactive"}
{"Compound": "CC(C)n1nc(-c2ccc3oc(N)nc3c2)c2c(N)ncnc21 + C=CC(=O)N1CCN(c2nc(=O)n(-c3c(C)ccnc3C(C)C)c3nc(-c4c(O)cccc4F)c(F)cc23)C(C)C1", "Assigned Label": "inactive"}
{"Compound": "CCN1CCN(Cc2ccc(Nc3ncc(F)c(-c4cc(F)c5nc(C)n(C(C)C)c5c4)n3)nc2)CC1 + C=CC(=O)N1CCN(c2nc(OCC3CCCN3C)nc3c2CCN(c2cccc4cccc(C)c24)C3)CC1CC#N", "Assigned Label": "active"}
{"Compound": "CCN1CCN(Cc2ccc(Nc3ncc(F)c(-c4cc(F)c5nc(C)n(C(C)C)c5c4)n3)nc2)CC1 + CC1OCC2(CCN(c3cnc(Sc4ccnc(N)c4Cl)c(N)n3)CC2)C1N", "Assigned Label": "inactive"}
{"Compound": "CC(=O)Nc1cccc(-n2c(=O)n(C3CC3)c(=O)c3c(Nc4ccc(I)cc4F)n(C)c(=O)c(C)c32)c1 + CC1OCC2(CCN(c3cnc(Sc4ccnc(N)c4Cl)c(N)n3)CC2)C1N", "Assigned Label": "inactive"}
{"Compound": "Cn1ncnc1[C@H]1c2n[nH]c(=O)c3cc(F)cc(c23)N[C@@H]1c1ccc(F)cc1 + CC1OCC2(CCN(c3cnc(Sc4ccnc(N)c4Cl)c(N)n3)CC2)C1N", "Assigned Label": "inactive"}
{"Compound": "CC1COCCN1c1cc(-c2ccnn2C)c2ccnc(-c3ccn[nH]3)c2n1 (stereo unspecified) + C=CC(=O)N1CCN(c2nc(=O)n(-c3c(C)ccnc3C(C)C)c3nc(-c4c(O)cccc4F)c(F)cc23)C(C)C1", "Assigned Label": "inactive"}
{"Compound": "CC(C)n1nc(-c2ccc3oc(N)nc3c2)c2c(N)ncnc21 + C=CC(=O)N1CCN(c2nc(OCC3CCCN3C)nc3c2CCN(c2cccc4cccc(C)c24)C3)CC1CC#N", "Assigned Label": "active"}

###

Test system: KRAS patient-derived spheroids with HUVEC/MSC, viability
Assay: Anticancer human tumor 941728-121-R-J1-PDC cell line growth inhibition [KRAS2];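 note: spheroids exposed to agents for seven days before readout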
Conditions: curve of first compound; second compound 1 µM
Excerpt: Multicellular complex tumor spheroid response to RAS pathway inhibitors in combination with a targeted agents in patient-derived cell lines with oncogenic KRAS variants from multiple cancer types A high-throughput screen of multi-cell type tumor spheroids was designed to identify active combinations of targeted small molecules and KRAS pathway inhibitors. […] Compounds. […] If the clinical Cmax for an agent had not been determined, the highest concentration tested was 10 microM. […]
pIC50: −log10 of the molar value.
# pIC50 listing for each entry below

{"Compound": "CC1COCCN1c1cc(-c2ccnn2C)c2ccnc(-c3ccn[nH]3)c2n1 (stereo not given) + C=CC(=O)N1CCN(c2nc(OCC3CCCN3C)nc3c2CCN(c2cccc4cccc(C)c24)C3)CC1CC#N", "pIC50": "> 8.00"}
{"Compound": "COC(=O)c1ccc2c(C(=Nc3ccc(N(C)C(=O)CN4CCN(C)CC4)cc3)c3ccccc3)c(O)[nH]c2c1 + CNCc1ccccc1-c1csc(C(C)Nc2nc(C)nc3cc(OC)c(OC)cc23)c1", "pIC50": "> 7.50"}
{"Compound": "CCN1CCN(Cc2ccc(Nc3ncc(F)c(-c4cc(F)c5nc(C)n(C(C)C)c5c4)n3)nc2)CC1 + CC1OCC2(CCN(c3cnc(Sc4ccnc(N)c4Cl)c(N)n3)CC2)C1N", "pIC50": "> 8.50"}
{"Compound": "Cn1ncnc1[C@H]1c2n[nH]c(=O)c3cc(F)cc(c23)N[C@@H]1c1ccc(F)cc1 + C=CC(=O)N1CCN(c2nc(OCC3CCCN3C)nc3c2CCN(c2cccc4cccc(C)c24)C3)CC1CC#N", "pIC50": "> 9.50"}
{"Compound": "CC1(C)CCC(CN2CCN(c3ccc(C(=O)NS(=O)(=O)c4ccc(NCC5CCOCC5)c([N+](=O)[O-])c4)c(Oc4cnc5[nH]ccc5c4)c3)CC2)=C(c2ccc(Cl)cc2)C1 + C=CC(=O)N1CCN(c2nc(=O)n(-c3c(C)ccnc3C(C)C)c3nc(-c4c(O)cccc4F)c(F)cc23)C(C)C1", "pIC50": "> 7.50"}

###

test system: KRAS patient-derived spheroids with HUVEC/MSC, viability; test: Anticancer human tumor 941728-121-R-J1-PDC cell line growth inhibition [KRAS2]; settings: second compound 0.1 µM; first compound 1 µM; stronger effect = lower value;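 note: spheroids exposed to agents for seven days before readout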
# viability, T/C listing for each entry below
Readout Name: viability, T/C (%)

{"Molecule": "Cn1nccc1Nc1nccc(-c2cc3c(s2)C(C)(C)N(CCN2CCOCC2)C3=O)n1 + CNCc1ccccc1-c1csc(C(C)Nc2nc(C)nc3cc(OC)c(OC)cc23)c1", "Readout Name": "viability, T/C", "Units": "%", "Recorded Value": 37.9}
{"Molecule": "CC1(C)CCC(CN2CCN(c3ccc(C(=O)NS(=O)(=O)c4ccc(NCC5CCOCC5)c([N+](=O)[O-])c4)c(Oc4cnc5[nH]ccc5c4)c3)CC2)=C(c2ccc(Cl)cc2)C1 + C=CC(=O)N1CCN(c2nc(=O)n(-c3c(C)ccnc3C(C)C)c3nc(-c4c(O)cccc4F)c(F)cc23)C(C)C1", "Readout Name": "viability, T/C", "Units": "%", "Recorded Value": 17.4}
{"Molecule": "Cn1nccc1Nc1nccc(-c2cc3c(s2)C(C)(C)N(CCN2CCOCC2)C3=O)n1 + COc1cc2nc(C)nc(NC(C)c3cc(N)cc(C(F)(F)F)c3)c2cc1OC1CCOC1", "Readout Name": "viability, T/C", "Units": "%", "Recorded Value": 39.5}
{"Molecule": "Cn1nccc1Nc1nccc(-c2cc3c(s2)C(C)(C)N(CCN2CCOCC2)C3=O)n1 + C=CC(=O)N1CCN(c2nc(OCC3CCCN3C)nc3c2CCN(c2cccc4cccc(C)c24)C3)CC1CC#N", "Readout Name": "viability, T/C", "Units": "%", "Recorded Value": 18.8}
{"Molecule": "COc1cc(Nc2ncc3c(n2)-c2ccc(Cl)cc2C(c2c(F)cccc2OC)=NC3)ccc1C(=O)O + CC1OCC2(CCN(c3cnc(Sc4ccnc(N)c4Cl)c(N)n3)CC2)C1N", "Readout Name": "viability, T/C", "Units": "%", "Recorded Value": 48.5}
{"Molecule": "O=C(c1cc(Cc2n[nH]c(=O)c3ccccc23)ccc1F)N1CCN(C(=O)C2CC2)CC1 + CC1OCC2(CCN(c3cnc(Sc4ccnc(N)c4Cl)c(N)n3)CC2)C1N", "Readout Name": "viability, T/C", "Units": "%", "Recorded Value": 53.1}
{"Molecule": "COc1cc(Nc2ncc3c(n2)-c2ccc(Cl)cc2C(c2c(F)cccc2OC)=NC3)ccc1C(=O)O + C=CC(=O)N1CCN(c2nc(OCC3CCCN3C)nc3c2CCN(c2cccc4cccc(C)c24)C3)CC1CC#N", "Readout Name": "viability, T/C", "Units": "%", "Recorded Value": 25.9}
{"Molecule": "COc1cc2nccc(Oc3ccc(NC(=O)C4(C(=O)Nc5ccc(F)cc5)CC4)cc3)c2cc1OC + COc1cc2nc(C)nc(NC(C)c3cc(N)cc(C(F)(F)F)c3)c2cc1OC1CCOC1", "Readout Name": "viability, T/C", "Units": "%", "Recorded Value": 25.9}
{"Molecule": "CCNC(=O)CC1N=C(c2ccc(Cl)cc2)c2cc(OC)ccc2-n2c(C)nnc21 (stereo not given) + CNCc1ccccc1-c1csc(C(C)Nc2nc(C)nc3cc(OC)c(OC)cc23)c1", "Readout Name": "viability, T/C", "Units": "%", "Recorded Value": 35.5}
{"Molecule": "Cn1nccc1Nc1nccc(-c2cc3c(s2)C(C)(C)N(CCN2CCOCC2)C3=O)n1 + CC1OCC2(CCN(c3cnc(Sc4ccnc(N)c4Cl)c(N)n3)CC2)C1N", "Readout Name": "viability, T/C", "Units": "%", "Recorded Value": 36}
{"Molecule": "O=C(c1cc(Cc2n[nH]c(=O)c3ccccc23)ccc1F)N1CCN(C(=O)C2CC2)CC1 + C=CC(=O)N1CCN(c2nc(=O)n(-c3c(C)ccnc3C(C)C)c3nc(-c4c(O)cccc4F)c(F)cc23)C(C)C1", "Readout Name": "viability, T/C", "Units": "%", "Recorded Value": 19.5}
{"Molecule": "CC1OCC2(CCN(c3cnc(Sc4ccnc(N)c4Cl)c(N)n3)CC2)C1N (stereo not given) + C=CC(=O)N1CCN(c2nc(OCC3CCCN3C)nc3c2CCN(c2cccc4cccc(C)c24)C3)CC1CC#N", "Readout Name": "viability, T/C", "Units": "%", "Recorded Value": 26.3}
{"Molecule": "CC1(C)CCC(CN2CCN(c3ccc(C(=O)NS(=O)(=O)c4ccc(NCC5CCOCC5)c([N+](=O)[O-])c4)c(Oc4cnc5[nH]ccc5c4)c3)CC2)=C(c2ccc(Cl)cc2)C1 + CC1OCC2(CCN(c3cnc(Sc4ccnc(N)c4Cl)c(N)n3)CC2)C1N", "Readout Name": "viability, T/C", "Units": "%", "Recorded Value": 31.2}
{"Molecule": "CC1(C)CCC(CN2CCN(c3ccc(C(=O)NS(=O)(=O)c4ccc(NCC5CCOCC5)c([N+](=O)[O-])c4)c(Oc4cnc5[nH]ccc5c4)c3)CC2)=C(c2ccc(Cl)cc2)C1 + C=CC(=O)N1CCN(c2nc(OCC3CCCN3C)nc3c2CCN(c2cccc4cccc(C)c24)C3)CC1CC#N", "Readout Name": "viability, T/C", "Units": "%", "Recorded Value": 25.1}
{"Molecule": "COC(=O)c1ccc2c(C(=Nc3ccc(N(C)C(=O)CN4CCN(C)CC4)cc3)c3ccccc3)c(O)[nH]c2c1 + CNCc1ccccc1-c1csc(C(C)Nc2nc(C)nc3cc(OC)c(OC)cc23)c1", "Readout Name": "viability, T/C", "Units": "%", "Recorded Value": 63.4}
{"Molecule": "CCN1CCN(Cc2ccc(Nc3ncc(F)c(-c4cc(F)c5nc(C)n(C(C)C)c5c4)n3)nc2)CC1 + CC1OCC2(CCN(c3cnc(Sc4ccnc(N)c4Cl)c(N)n3)CC2)C1N", "Readout Name": "viability, T/C", "Units": "%", "Recorded Value": 44.4}
{"Molecule": "COc1cc(Nc2ncc3c(n2)-c2ccc(Cl)cc2C(c2c(F)cccc2OC)=NC3)ccc1C(=O)O + CNCc1ccccc1-c1csc(C(C)Nc2nc(C)nc3cc(OC)c(OC)cc23)c1", "Readout Name": "viability, T/C", "Units": "%", "Recorded Value": 45.4}
{"Molecule": "CC(=O)OC12COC1CC(O)C1(C)C(=O)C(O)C3=C(C)C(OC(=O)C(O)C(NC(=O)OC(C)(C)C)c4ccccc4)CC(O)(C(OC(=O)c4ccccc4)C21)C3(C)C (stereo not given) + C=CC(=O)N1CCN(c2nc(OCC3CCCN3C)nc3c2CCN(c2cccc4cccc(C)c24)C3)CC1CC#N", "Readout Name": "viability, T/C", "Units": "%", "Recorded Value": 24.6}
{"Molecule": "O=C(c1cc(Cc2n[nH]c(=O)c3ccccc23)ccc1F)N1CCN(C(=O)C2CC2)CC1 + CNCc1ccccc1-c1csc(C(C)Nc2nc(C)nc3cc(OC)c(OC)cc23)c1", "Readout Name": "viability, T/C", "Units": "%", "Recorded Value": 54.6}
{"Molecule": "CC(C)NCC(C(=O)N1CCN(c2ncnc3c2C(C)CC3O)CC1)c1ccc(Cl)cc1 (stereo not given) + CC1OCC2(CCN(c3cnc(Sc4ccnc(N)c4Cl)c(N)n3)CC2)C1N", "Readout Name": "viability, T/C", "Units": "%", "Recorded Value": 24.9}

Reference source: PubChem BioAssay AID1963862
